test system: U2OS; assay: Multiplex assay against U2OS; format: toxicity, cell-based; conditions: human, 12 h, 1 µM, compound concentration 1 uM, replicate 1
I'd appreciate it if you could supply Population Tubulin-Different-Phenotype (%) values for the items below.
Note: unit % is implicit; provide only the numeric part.

Prompt line: Entry Oc1c(CN2CCN(c3ccccn3)CC2)cc(Cl)c2cccnc12 : reported Population Tubulin-Different-Phenotype (%) = ?
Response line: 2

Prompt line: Entry under review: CCOc1c2c(c(OCC)c3ncccc13)CN(c1ccc(CS(=O)(=O)NC(=O)Cc3ccccc3OC)cc1C)C2=O . Reported Population Tubulin-Different-Phenotype (%)?
Response line: 2

Prompt line: Recorded Population Tubulin-Different-Phenotype (%) of CN(C)CCCc1cc(C(=O)Nc2ccc(-c3ccncc3)cc2)ccc1O.Cl.Cl , please.
Response line: 3

Prompt line: Query (compound): Cc1nc2ccc(Oc3ccc(F)cc3)cc2c(=O)n1C[C@H]1CCCN(C(C)C)C1.Cl ; field requested: Population Tubulin-Different-Phenotype (%)
Response line: 7
